biological target: Tyrosine-protein kinase Fer (Homo sapiens) (UniProt P16591); conditions: at 10 µM
Sequence (P16591 whole entry, looked up): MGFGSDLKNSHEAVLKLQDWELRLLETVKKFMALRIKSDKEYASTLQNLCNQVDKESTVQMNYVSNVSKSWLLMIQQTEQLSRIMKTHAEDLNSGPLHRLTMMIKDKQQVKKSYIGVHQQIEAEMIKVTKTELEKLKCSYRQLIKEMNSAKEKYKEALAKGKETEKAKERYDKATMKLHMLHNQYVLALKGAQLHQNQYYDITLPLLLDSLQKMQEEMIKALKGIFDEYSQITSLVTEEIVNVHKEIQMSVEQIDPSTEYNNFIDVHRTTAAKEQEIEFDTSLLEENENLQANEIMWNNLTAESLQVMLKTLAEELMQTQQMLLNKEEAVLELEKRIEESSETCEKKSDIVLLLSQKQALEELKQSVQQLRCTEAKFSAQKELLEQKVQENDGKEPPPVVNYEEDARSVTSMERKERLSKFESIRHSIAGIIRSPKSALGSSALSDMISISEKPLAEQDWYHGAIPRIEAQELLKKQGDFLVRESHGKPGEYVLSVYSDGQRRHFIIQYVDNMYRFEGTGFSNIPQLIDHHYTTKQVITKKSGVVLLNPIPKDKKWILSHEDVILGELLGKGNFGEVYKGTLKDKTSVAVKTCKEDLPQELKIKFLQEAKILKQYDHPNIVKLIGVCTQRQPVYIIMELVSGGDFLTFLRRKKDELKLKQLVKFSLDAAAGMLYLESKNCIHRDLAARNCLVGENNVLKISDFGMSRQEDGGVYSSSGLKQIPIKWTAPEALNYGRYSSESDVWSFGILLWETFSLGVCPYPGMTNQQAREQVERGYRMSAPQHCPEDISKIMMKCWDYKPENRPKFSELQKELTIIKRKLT
measurement.name: residual activity
// return the numeric value with its unit appended

>  <molecule>
Cn1nc2c3c(cccc31)C(=O)c1ccccc1-2

>  <residual activity>
76%

$$$$

Record request: residual activity value, item `COc1ccc(CNc2nc(N(CCO)CCO)nc3c2ncn3C(C)C)cc1`
86%

Another molecule: `CCOc1cc2ncnc(Nc3cccc(Br)c3)c2cc1OCC`
85%

Another molecule: `Nc1nc(Nc2ccc(S(N)(=O)=O)cc2)nn1C(=S)Nc1c(F)cccc1F`
1%

Another molecule: `Oc1ccc(Nc2nc(-c3ccc(Cl)cc3)cs2)cc1`
100%

Another molecule: `O=c1cc(-c2cccc3c2Sc2ccccc2S3)oc(N2CCOCC2)c1`
83%

Another molecule: `COc1cc2ncnc(N3CCN(C(=O)Nc4ccc(Oc5ccccc5)cc4)CC3)c2cc1OC`
88%

Another molecule: `CC[n+]1c(/C=C/N(C)c2ccccc2)n(-c2ccccc2)c2ccc(-c3nc4ccccc4s3)cc21`
59%

Another molecule: `CCN(CC)C(=O)c1ccc(Nc2nc(OCC3CCCCC3)c3nc[nH]c3n2)cc1`
6%

* * *

biological target: Glycogen synthase kinase-3 beta (Homo sapiens) (UniProt P49841); settings: at 10 µM
Sequence (P49841 whole entry, looked up): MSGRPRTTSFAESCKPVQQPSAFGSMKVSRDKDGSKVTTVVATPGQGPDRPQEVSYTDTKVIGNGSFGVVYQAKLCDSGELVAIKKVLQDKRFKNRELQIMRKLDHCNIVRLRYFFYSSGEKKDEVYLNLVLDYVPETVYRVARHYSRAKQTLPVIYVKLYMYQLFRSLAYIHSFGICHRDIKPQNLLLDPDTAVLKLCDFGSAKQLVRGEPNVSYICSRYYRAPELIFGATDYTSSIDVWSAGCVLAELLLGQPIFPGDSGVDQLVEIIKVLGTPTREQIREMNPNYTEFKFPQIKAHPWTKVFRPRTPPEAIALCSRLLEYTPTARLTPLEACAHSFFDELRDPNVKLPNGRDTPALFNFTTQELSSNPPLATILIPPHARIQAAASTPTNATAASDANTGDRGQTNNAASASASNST
measurement.name: residual activity (%)
A number alone suffices; assume %.

Worked examples, 5 compounds total:
>  <smi>
c1ccc(-c2n[nH]c3c2oc2ccccc23)cc1

>  <residual activity [%]>
67

$$$$
>  <smi>
CCC(=O)Nc1ccc2ncnc(Nc3cccc(Br)c3)c2c1

>  <residual activity [%]>
96

$$$$
>  <smi>
COc1cc2ncc(-c3ccccc3)nc2cc1OC

>  <residual activity [%]>
138

$$$$
>  <smi>
O=C1NC(=O)c2c1c1c3ccccc3[nH]c1c1[nH]c3cc(Br)ccc3c21

>  <residual activity [%]>
57

$$$$
>  <smi>
COc1ccc(CNc2nc(N(CCO)CCO)nc3c2ncn3C(C)C)cc1

>  <residual activity [%]>
102

$$$$

Record request: residual activity value, item `CO[C@H]1[C@@H](OC)C[C@H](C)[C@@H](OC)C2=CC(=O)C=C(NC(=O)/C(C)=C/C=C/[C@H](OC)[C@@H](OC(N)=O)/C(C)=C/[C@@H]1C)C2=O`
104

Another compound: `CN(C)CCCn1cc(C2=C(c3c[nH]c4ccccc34)C(=O)NC2=O)c2ccccc21`
3

Another compound: `Nc1nc(Nc2ccc(S(N)(=O)=O)cc2)nn1C(=S)Nc1c(F)cccc1F`
0

Another compound: `COc1ccc(S(=O)(=O)N(CCO)c2ccccc2CN(C)C/C=C/c2ccc(Cl)cc2)cc1`
121

Another compound: `Cn1cnc2cc3c(Nc4cccc(Br)c4)ncnc3cc21`
82

Another compound: `CN(C)c1ccc(/C=C2\C(=O)Nc3ccccc32)cc1`
97

Another compound: `O=C(Nc1cccc(Nc2cc(Nc3cccc(C(F)(F)F)c3)ncn2)c1)C1CC1`
89

Another compound: `COc1cc2ncnc(N3CCN(C(=O)Nc4ccc(Oc5ccccc5)cc4)CC3)c2cc1OC`
148

Another compound: `CCN(CC)C(=O)c1ccc(Nc2nc(OCC3CCCCC3)c3nc[nH]c3n2)cc1`
26

Another compound: `O=c1c2ccccc2[nH]c(=S)n1CCN1CCC(=C(c2ccc(F)cc2)c2ccc(F)cc2)CC1`
123
